Target: sigma 2 receptor (Rattus norvegicus, UniProt Q5U3Y7)
Construct: A crude P2 membrane fraction was prepared from livers of male rats (Sprague-Dawley rats); from tissue; host or cells: rat liver (male Sprague-Dawley), crude P2 membrane fraction
Experiment: Sigma 2-selective receptor binding inhibition test ([3H]-DTG, rat liver P2 membrane fraction)
Conditions: test compound 10 nM; [3H]-DTG 1 nM, 500 nM pentazocine, rat liver P2 fraction; read-out: Inhibitory rate against sigma 2 (%, 10 nM)
Structures can show the parent of a compound that is named as a salt.
# key: entry, value: inhibition at 0.01 µM
Lab book: enter the figure in %, no units written.

Consider the worked cases shown below.
{"columns": ["Molecule", "System", "Observation type", "Experimental result"],
 "data": [
  ["O=C(CN1CCC(CN2Cc3ccccc3C2=O)CC1)C1CCCCC1 [Example 84, fumarate]", "sigma 2 receptor (Rattus norvegicus, UniProt Q5U3Y7)", "inhibition at 0.01 µM", 58],
  ["COc1cccc(SCCN2CCC(CN3Cc4ccccc4C3=O)CC2)c1 [Example 111, fumarate]", "sigma 2 receptor (Rattus norvegicus, UniProt Q5U3Y7)", "inhibition at 0.01 µM", 51],
  ["O=C(CN1CCC(CN2Cc3ccccc3C2=O)CC1)c1cccc(Cl)c1 [Example 76, fumarate]", "sigma 2 receptor (Rattus norvegicus, UniProt Q5U3Y7)", "inhibition at 0.01 µM", 84]
]}

Shift focus to the following entry.
For the molecule shown here, O=C1c2ccccc2CN1CC1CCN(CC(=O)N2CCc3ccccc32)CC1 [Example 51, fumarate] , give the reported inhibition at 0.01 µM.
74

* * *

Target: sigma 2 receptor (Rattus norvegicus)
Construct: A crude P2 membrane fraction was prepared from livers of male rats (Sprague-Dawley rats); from tissue; host or cells: rat liver (male Sprague-Dawley), crude P2 membrane fraction
Test: Sigma 2-selective receptor binding inhibition test ([3H]-DTG, rat liver P2 membrane fraction)
Settings: test compound 10 nM; [3H]-DTG 1 nM, 500 nM pentazocine, rat liver P2 fraction; read-out: Inhibitory rate against sigma 2 (%, 10 nM)
Counter-ions that a name gives are not always drawn.
Observation type: inhibition at 0.01 µM

{"columns": ["Molecule", "Experimental result"],
 "data": [
  ["O=C1c2ccccc2CN1CC1CCN(CCSc2cccc(F)c2)CC1 [Example 113, fumarate]", "64%"],
  ["Cc1cccc(C(=O)CN2CCC(CN3Cc4ccccc4C3=O)CC2)c1 [Example 78, fumarate]", "86%"],
  ["Cc1ccccc1C(=O)CN1CCC(CN2Cc3ccccc3C2=O)CC1 [Example 77, fumarate]", "80%"]
]}

For the molecule shown here, O=C1c2ccccc2CN1CC1CCN(CC(O)C2CCCCC2)CC1 (stereo not shown) [Example 85, fumarate] , give the reported inhibition at 0.01 µM.
59%

* * *

# key: entry, value: Ki
Molecular target: sigma 2 receptor (Rattus norvegicus)
Sequence (Q5U3Y7 1-176): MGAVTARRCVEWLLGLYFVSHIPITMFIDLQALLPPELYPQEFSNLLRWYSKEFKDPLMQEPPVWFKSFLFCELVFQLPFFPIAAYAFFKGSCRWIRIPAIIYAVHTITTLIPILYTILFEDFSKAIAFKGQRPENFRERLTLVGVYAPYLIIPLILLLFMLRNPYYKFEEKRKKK
Where a name gives a salt, the structure may show the parent alone.
Lab book: enter the figure in nM, no units written.

For the molecule shown here, O=C(CCN1CCC(CN2Cc3ccccc3C2=O)CC1)c1ccccc1 [Example 30, hydrochloride] , give the reported Ki.
22

Moving on to the next molecule: O=C1c2ccc(Br)cc2CN1CC1CCN(CCc2ccc(F)cc2)CC1 [Example 160, fumarate]
10

Moving on to the next molecule: O=C(CN1CCC(CN2Cc3ccc(Br)cc3C2=O)CC1)c1ccc(F)cc1 [Example 4, hydrochloride]
7.6

Moving on to the next molecule: O=C(CN1CCC(CN2Cc3ccccc3C2=O)CC1)C1CCCCC1 [Example 84, fumarate]
3.4

Moving on to the next molecule: O=C(CN1CCC(CN2Cc3ccccc3C2=O)CC1)N1CCCCC1 [Example 50, fumarate]
14

Moving on to the next molecule: O=C(CN1CCC(CN2Cc3ccsc3C2=O)CC1)c1ccc(F)cc1 [Example 22, hydrochloride]
22

Moving on to the next molecule: O=C1c2ccccc2CN1CC1CCN(CCOc2ccc(F)cc2)CC1 [Example 32, hydrochloride]
2.8

Moving on to the next molecule: O=C(CN1CCC(CN2Cc3cc(Cl)ccc3C2=O)CC1)c1ccc(F)cc1 [Example 8, hydrochloride]
3.1

Moving on to the next molecule: COc1ccc2c(c1)CN(CC1CCN(CCc3ccc(F)cc3)CC1)C2=O [Example 159, fumarate]
25
